Value source: ChEMBL document CHEMBL3774340

Parameter pIC50: see the listing below.
# targetUnderTest: UniProt O15164
# testDetails: Inhibition of recombinant human His-tagged TRIM24-PHD/bromodomain expressed in Escherichia coli strains BL21 (DE3) cells using biotinylated H3K23ac (1 to 33 residues) peptide after 1 hr by AlphaScreen assay
pIC50: −log10 of the molar value.
measuredQuantity: pIC50

linenotation=CCCOc1cc(OCCCCCCN)cc(Oc2cc3c(cc2NS(=O)(=O)c2ccc(OC)c(OC)c2)n(C)c(=O)n3C)c1 val=7.89
linenotation=CCCCOc1cccc(Oc2cc3c(cc2NS(=O)(=O)c2cn(C)c(C)n2)n(C)c(=O)n3C)c1 val=6.80
linenotation=CCCOc1cc(OCCCCCCO)cc(Oc2cc3c(cc2NS(=O)(=O)c2cn(C)cn2)n(C)c(=O)n3C)c1 val=7.22
linenotation=CC(C)COc1ccc(S(=O)(=O)Nc2ccc3c(c2)n(C)c(=O)n3C)cc1 val=5.40
linenotation=Cn1c(=O)n(C)c2cc(NS(=O)(=O)c3ccccc3)ccc21 val=4.64

###

# targetUnderTest: Transcription intermediary factor 1-alpha (Homo sapiens)
# Sequence (O15164 whole entry): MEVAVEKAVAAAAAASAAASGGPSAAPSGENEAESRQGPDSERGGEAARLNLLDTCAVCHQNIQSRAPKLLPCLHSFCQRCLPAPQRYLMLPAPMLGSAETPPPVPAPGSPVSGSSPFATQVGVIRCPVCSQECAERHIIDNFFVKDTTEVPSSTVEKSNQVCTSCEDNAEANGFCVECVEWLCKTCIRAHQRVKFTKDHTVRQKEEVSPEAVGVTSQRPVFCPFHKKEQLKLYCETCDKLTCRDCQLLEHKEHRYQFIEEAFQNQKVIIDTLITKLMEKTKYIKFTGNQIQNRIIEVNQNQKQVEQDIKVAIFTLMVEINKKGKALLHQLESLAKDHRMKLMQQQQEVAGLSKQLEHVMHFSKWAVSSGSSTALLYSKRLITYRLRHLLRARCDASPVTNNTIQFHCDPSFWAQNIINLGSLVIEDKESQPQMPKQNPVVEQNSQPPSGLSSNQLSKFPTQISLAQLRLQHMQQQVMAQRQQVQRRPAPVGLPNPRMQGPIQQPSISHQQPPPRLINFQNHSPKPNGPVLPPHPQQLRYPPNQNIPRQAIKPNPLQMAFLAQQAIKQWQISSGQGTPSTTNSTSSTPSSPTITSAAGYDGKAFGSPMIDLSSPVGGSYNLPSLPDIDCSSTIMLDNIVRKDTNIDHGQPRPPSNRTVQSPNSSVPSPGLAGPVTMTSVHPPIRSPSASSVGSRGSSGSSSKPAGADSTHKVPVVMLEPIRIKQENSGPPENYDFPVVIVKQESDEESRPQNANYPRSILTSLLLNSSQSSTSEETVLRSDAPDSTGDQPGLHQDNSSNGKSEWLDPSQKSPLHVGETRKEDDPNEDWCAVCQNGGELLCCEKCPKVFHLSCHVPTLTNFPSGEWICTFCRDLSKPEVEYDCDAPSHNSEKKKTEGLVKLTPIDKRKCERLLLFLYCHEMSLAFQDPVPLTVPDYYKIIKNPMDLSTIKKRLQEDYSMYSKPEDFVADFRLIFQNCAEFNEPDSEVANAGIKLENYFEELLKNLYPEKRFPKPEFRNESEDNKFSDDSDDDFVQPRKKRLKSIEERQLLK
# testDetails: Inhibition of Flag-tagged TRIM24-PHD/bromodomain (unknown origin) expressed in human HeLa cells for 2 hrs by AlphaLisa assay
pEC50: −log10 of the molar value.
Parameter pEC50: see the listing below.
measuredQuantity: pEC50

molecule=CCCOc1cc(OCCCN)cc(Oc2cc3c(cc2NS(=O)(=O)c2ccc(OC)c(OC)c2)n(C)c(=O)n3C)c1 valuemodifier== val=6.92
molecule=CCCOc1cc(OCCCCCN)cc(Oc2cc3c(cc2NS(=O)(=O)c2cn(C)cn2)n(C)c(=O)n3C)c1 valuemodifier== val=6.96
molecule=Cn1cnc(S(=O)(=O)Nc2cc3c(cc2Oc2ccc(OCc4ccccc4)cc2)n(C)c(=O)n3C)c1 valuemodifier=< val=4.48
molecule=CCCOc1cc(OCCCCCCNC(=O)OC(C)(C)C)cc(Oc2cc3c(cc2NS(=O)(=O)c2cn(C)cn2)n(C)c(=O)n3C)c1 valuemodifier== val=5.26
molecule="Cn1cnc(S(=O)(=O)Nc2cc3c(cc2Oc2cccc(OCC4CCOC4)c2)n(C)c(=O)n3C)c1 (stereo not given)" valuemodifier== val=5.72
molecule=CCCCOc1cccc(Oc2cc3c(cc2NS(=O)(=O)c2cn(C)c(C)n2)n(C)c(=O)n3C)c1 valuemodifier== val=5.52
molecule=CCCOc1cccc(Oc2cc3c(cc2NS(=O)(=O)c2ccc(OC)c(OC)c2)n(C)c(=O)n3C)c1 valuemodifier== val=6.08
molecule=COc1ccc(S(=O)(=O)Nc2cc3c(cc2Oc2cccc(OCc4ccccc4)c2)n(C)c(=O)n3C)cc1OC valuemodifier== val=5.41
molecule=COc1ccc(S(=O)(=O)Nc2cc3c(cc2Oc2cccc(OCCCCN(C)C)c2)n(C)c(=O)n3C)cc1OC valuemodifier== val=5.49
molecule=CCCOc1cccc(Oc2cc3c(cc2NS(=O)(=O)c2cn(C)c(C)n2)n(C)c(=O)n3C)c1 valuemodifier== val=6.02
molecule=CC(C)COc1cccc(Oc2cc3c(cc2NS(=O)(=O)C2CC2)n(C)c(=O)n3C)c1 valuemodifier== val=5.30
molecule=CC(C)COc1cccc(Oc2ccc3c(c2)n(C)c(=O)n3C)c1 valuemodifier=< val=4.44
molecule=Cc1nc(S(=O)(=O)Nc2cc3c(cc2Oc2cccc(OCc4ccccc4)c2)n(C)c(=O)n3C)cn1C valuemodifier== val=5.31
molecule=CCCOc1cc(OCCCCCCO)cc(Oc2cc3c(cc2NS(=O)(=O)c2cn(C)cn2)n(C)c(=O)n3C)c1 valuemodifier== val=5.74
molecule=CCCOc1cc(OCCCCCCN)cc(Oc2cc3c(cc2NS(=O)(=O)c2cn(C)cn2)n(C)c(=O)n3C)c1 valuemodifier== val=6.77
molecule=CCCOc1cc(OCCCCN)cc(Oc2cc3c(cc2NS(=O)(=O)c2ccc(OC)c(OC)c2)n(C)c(=O)n3C)c1 valuemodifier== val=7.23
molecule=CCOc1cccc(Oc2cc3c(cc2NS(=O)(=O)c2cn(C)c(C)n2)n(C)c(=O)n3C)c1 valuemodifier== val=5.64
molecule=CCCOc1cc(OCCCCN)cc(Oc2cc3c(cc2NS(=O)(=O)c2cn(C)cn2)n(C)c(=O)n3C)c1 valuemodifier== val=6.92
molecule=CCCOc1cc(OCCCCCCN)cc(Oc2cc3c(cc2NS(=O)(=O)c2ccc(OC)c(OC)c2)n(C)c(=O)n3C)c1 valuemodifier== val=6.77
molecule=COCCCOc1cccc(Oc2cc3c(cc2NS(=O)(=O)c2cn(C)c(C)n2)n(C)c(=O)n3C)c1 valuemodifier== val=5.57
